Experiment: photoluminescence quantum yield (fraction); solvent given as SMILES
Conditions: in ClC(Cl)Cl
ATTRIBUTE_MEASURED: photoluminescence quantum yield
Reply with just the number.

Q: Give its photoluminescence quantum yield value. Item: CCCCCCCCCCOc1ccc2cc(C3=C4C(=O)N(CC(OCC)OCC)C(c5cc6ccc(OCCCCCCCCCC)cc6o5)=C4C(=O)N3CC(OCC)OCC)oc2c1
Result: 0.75

Q: Give its photoluminescence quantum yield value. Item: CCCCCCOc1ccc(N(c2ccc(OCCCCCC)cc2)c2ccc(-c3sc(-c4ccc(N(c5ccc(OCCCCCC)cc5)c5ccc(OCCCCCC)cc5)cc4)c4nc(-c5ccc(OC)cc5)c(-c5ccc(OC)cc5)nc34)cc2)cc1
Result: 0.014

Q: Give its photoluminescence quantum yield value. Item: O=C1[C@@H]2[C@H](C(=O)N1c1ccc3cc4ccccc4cc3c1)[C@@H]1C=C[C@H]2C1
Result: 0.24

Q: Give its photoluminescence quantum yield value. Item: CC1=CC(C)=[N+]2C1=C(c1ccc(I)cc1)c1c(C)cc(C)n1[B-]21OCCO1
Result: 0.14

Q: Give its photoluminescence quantum yield value. Item: CCC1=C(CC)C(C)=[N+]2C1=Cc1c(C)c3cc4c(cc3n1[B-]2(F)F)=[N+]1C(=Cc2c(CC)c(CC)c(C)n2[B-]1(F)F)C=4C
Result: 0.72

Q: Give its photoluminescence quantum yield value. Item: CCCCCCN1C(=O)c2cccc3cc(/N=C\c4ccc(N(c5ccccc5)c5ccccc5)cc4)cc(c23)C1=O
Result: 0.14

Q: Give its photoluminescence quantum yield value. Item: CN1c2ccc(C(=O)c3ccccc3)cc2Sc2cc(C(=O)c3ccccc3)ccc21
Result: 0.21

Q: Give its photoluminescence quantum yield value. Item: CC1=CC(C)=[N+]2C1=C(c1ccc(I)cc1)c1c(C)cc(C)n1[B-]2(OCc1ccccc1)OCc1ccccc1
Result: 0.65

Q: Give its photoluminescence quantum yield value. Item: c1cc2ccc3ccc(-c4ccc(-c5nnc(-c6ccc(-c7nnc(-c8ccc(-c9ccc%10ccc%11cccc%12ccc9c%10c%11%12)s8)o7)cc6)o5)s4)c4ccc(c1)c2c34
Result: 0.06

Q: Give its photoluminescence quantum yield value. Item: c1ccc(-c2c3c(nc4ccccc24)-c2cc4c(cc2CC3)-c2nc3ccccc3c(-c3ccccc3)c2CC4)cc1
Result: 0.84

Q: Give its photoluminescence quantum yield value. Item: N#CC1=CC(Br)=CC(C#N)=P1(c1ccccc1)c1ccccc1
Result: 0.52

Q: Give its photoluminescence quantum yield value. Item: COc1ccc(/C=C/C(=O)c2ccccc2O)cc1OC
Result: 0.053

Q: Give its photoluminescence quantum yield value. Item: CCCCCCCCc1ccc(-c2c3cc(-c4cc(CCCCCCCC)c(-c5ccc(-c6sc(/C=C7\SC(=S)N(CC)C7=O)cc6CCCCCCCC)s5)s4)sc3c(-c3ccc(CCCCCCCC)s3)c3cc(-c4cc(CCCCCCCC)c(-c5ccc(-c6sc(/C=C7\SC(=S)N(CC)C7=O)cc6CCCCCCCC)s5)s4)sc23)s1
Result: 0.027

Q: Give its photoluminescence quantum yield value. Item: CCC1=C(C)C2=Cc3ccccc3B(O)N2C1=O
Result: 0.36

Q: Give its photoluminescence quantum yield value. Item: CC(=O)c1c2c(cc3c(N(C)C)cccc13)CCC2
Result: 0.4

Q: Give its photoluminescence quantum yield value. Item: O=Cc1c(O)c(-c2nc3ccccc3s2)cc2ccccc12
Result: 0.065

Q: Give its photoluminescence quantum yield value. Item: N#CC(C#N)=Cc1ccc(-c2ccc(N(c3ccccc3)c3ccccc3)cc2)o1
Result: 0.19

Q: Give its photoluminescence quantum yield value. Item: CCOC(=O)/C(C#N)=C\c1ccc2c(c1)c1ccccc1n2-c1ccc(C)cc1
Result: 0.08

Q: Give its photoluminescence quantum yield value. Item: COc1ccc(-c2cc(-c3ccc(N(C)C)cc3)nc(-c3ccccc3)n2)cc1
Result: 0.49

Q: Give its photoluminescence quantum yield value. Item: COc1ccc2c(c1)CCc1c(-c3ccccc3)c3n(c1-2)[B-](F)(F)[N+]1=c2ccc4ccccc4c2=C(c2ccccc2)C1=N3
Result: 0.11

Q: Give its photoluminescence quantum yield value. Item: Fc1ccc(-c2cc3ccc4cc(-c5ccc(F)cc5)cc5ccc(c2)c3c45)cc1
Result: 0.04

Q: Give its photoluminescence quantum yield value. Item: O=P1(c2ccccc2)C(c2cc(C(F)(F)F)cc(C(F)(F)F)c2)=Cc2c3ccc4cccc5ccc(c6cc(-c7ccccc7)n1c26)c3c45 (stereo not drawn)
Result: 0.6

Q: Give its photoluminescence quantum yield value. Item: Clc1ccc(-c2nc(-c3ccccc3)sc2N(c2ccccc2)c2ccccc2)cc1
Result: 0.33

Q: Give its photoluminescence quantum yield value. Item: CCOC(=O)c1sc2nc(-c3ccccc3)c(C)c(C#N)c2c1N
Result: 0.037

Q: Give its photoluminescence quantum yield value. Item: CCCCn1c(=O)c2cc3ccc4cccc5ccc(c2c1=O)c3c45
Result: 0.52

Q: Give its photoluminescence quantum yield value. Item: CC1=CC(C)=[N+]2C1=C(C1=C3C(C)=CC(C)=[N+]3[B-](F)(F)n3c(C)cc(C)c31)c1c(C)cc(C)n1[B-]2(F)F
Result: 0.31

Q: Give its photoluminescence quantum yield value. Item: C=C[Si](c1c2ccccc2cc2ccccc12)(c1c2ccccc2cc2ccccc12)c1c2ccccc2cc2ccccc12
Result: 0.017

Q: Give its photoluminescence quantum yield value. Item: CN(C)c1ccc(C2=Cc3ccc4ccccc4[n+]3[B-](F)(F)O2)cc1
Result: 0.86

Q: Give its photoluminescence quantum yield value. Item: O=Cc1ccc(C#CC(C#Cc2ccc(C=O)s2)=Cc2ccc(C=C(C#Cc3ccc(C=O)s3)C#Cc3ccc(C=O)s3)cc2)s1
Result: 0.08

Q: Give its photoluminescence quantum yield value. Item: F[B-]1(F)OC(c2ccc(Br)cc2)=Cc2c3ccccc3cc[n+]21
Result: 0.049

Q: Give its photoluminescence quantum yield value. Item: N#CC(C#N)=Cc1ccc(-c2ccc(N(c3ccccc3)c3ccccc3)cc2)cc1
Result: 0.19

Q: Give its photoluminescence quantum yield value. Item: CN(C)c1ccc(-c2ccc(-c3cc(-c4ccccc4)c(-c4ccccc4)c(-c4ccccc4)c3-c3ccccc3)cc2)cc1
Result: 0.14

Q: Give its photoluminescence quantum yield value. Item: Cc1ccc(-n2c(-c3ccccc3O)nc(-c3ccccc3O)c2-c2ccccc2O)cc1
Result: 0.32
